biological target: Bisphosphoglycerate mutase (Homo sapiens); test: Inhibition of human Bis-phosphoglycerate mutase using 3-PG, GAP and NAD as substrate preincubated for 30 mins followed by substrate addition and measured after 100 mins in presence of GAPDH by resazurin reagent based fluorescence analysis
Sequence (P07738 whole entry): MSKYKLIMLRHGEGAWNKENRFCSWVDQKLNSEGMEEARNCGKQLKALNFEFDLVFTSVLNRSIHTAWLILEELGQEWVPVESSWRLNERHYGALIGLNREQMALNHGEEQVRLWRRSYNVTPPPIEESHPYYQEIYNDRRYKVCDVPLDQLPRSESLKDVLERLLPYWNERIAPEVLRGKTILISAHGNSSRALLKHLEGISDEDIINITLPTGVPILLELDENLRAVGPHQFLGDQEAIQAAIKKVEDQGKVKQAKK
Would you kindly list IC50 for each of these compounds?
Please reply with the bare figure in µM and do not write the unit itself.

Lookup: Which IC50 is reported for this compound? Cc1cnc(OCc2nc(C)c(-c3cccc(-c4cc(F)c5nn[nH]c5c4F)n3)s2)nc1
Found: 0.021

Lookup: Which IC50 is reported for this compound? Cc1nc(COc2cccnn2)sc1-c1csc(-c2cc(F)c3[nH]nnc3c2)n1
Found: 0.092

Lookup: Which IC50 is reported for this compound? Cc1nc(COc2ncccn2)sc1-c1cccc(-c2ccc(-c3noc(=O)[nH]3)cc2)n1
Found: 0.138

Lookup: Which IC50 is reported for this compound? Cc1nc(COCC(C)(C)O)sc1-c1cccc(-c2cc(F)c3nn[nH]c3c2F)n1
Found: 0.019

Lookup: Which IC50 is reported for this compound? Cc1nc(COc2ncccn2)sc1-c1csc(-c2cc(F)c(O)c(F)c2F)n1
Found: 0.159

Data credit: ChEMBL document CHEMBL5131548
